# Tested on: SNB-78
# Protocol Notes: NCI tumour cell line growth inhibition, 48 h
Calls of active or inactive are those of the source. Cut-off read from the data, not from the text of the source: active = GI50 up to about 1.1 µM and inactive = higher.
Outcome Measure: GI50

>>> print(df.to_string())
                                    compound  outcome_measure                result
 0        CCCCCCCCCCCCOP(N)(=O)OCCCCCCCCCCCC             GI50   > 100 µM (inactive)
 1  C=C(C)C(=O)O[C@H]1CC2=C[C@@H](C[C@@]3(C)O[C@@H]3[C@H]3OC(=O)C(=C)[C@@H]31)OC2=O [ELEPHANTOPIN]             GI50    2.09 µM (inactive)
 2  COc1ccc(OC)c(NC(=O)C(=O)C(C(C)=O)c2nc3ccc(Cl)cc3nc2O)c1 (stereo unspecified)             GI50    > 50 µM (inactive)
 3  COc1cc(O)c2c(c1)C(=O)c1cc(C)cc(O)c1C2=O [PHYSCION]             GI50   > 100 µM (inactive)
 4  CC(C)=CCC/C(C)=C/CCC1(C)C=Cc2c(c3ccccc3oc2=O)O1 (stereo unspecified)             GI50  > 56.2 µM (inactive)
 5  O=C(C(=O)N1CC2C=CC1CC2)c1c[nH]c2ccccc12 (stereo unspecified)             GI50   > 100 µM (inactive)
 6  Oc1ccc2c3c1OC1C(=NN=C4CCC5(O)C6Cc7ccc(O)c8c7C5(CCN6CC5CC5)C4O8)CCC4(O)C(C2)N(CC2CC2)CCC314 (stereo unspecified)             GI50    62.5 µM (inactive)
 7   COC(=O)CCSC(=O)Nc1ccc(/N=N/c2ccccc2)cc1             GI50   > 100 µM (inactive)
 8              CCOC(=O)/C=C(\C)c1ccc(Cl)cc1             GI50   > 100 µM (inactive)
 9  COc1nc2c(nc(N)n2C2OCC(O)C(O)C2O)c(=O)n1C (stereo unspecified)             GI50   > 100 µM (inactive)
10                     CN1CCCc2nc3ccccc3n2C1             GI50   > 100 µM (inactive)
